Test system: MCF-7
method: cells
Type: cell-based
measurementConditions: 72 h, MTT; read-out: IC50 (μM) MCF-7 72 h
# Lookup of reported IC50 keyed by entry
Answer shape: numeric part, then the unit.

[[record]]
compound = "COc1ccc([N+]2=Cc3ccc4ccccc4[n+]3[Ru-]2[Cl])cc1.Cc1c(C)c(C)c(C)c(C)c1C.[Cl-]"
result = "4.1 µM"


*Q* Which IC50 value belongs to CC(C)c1cc(C(C)C)cc(C(C)C)c1.COc1ccc([N+]2=Cc3ccc4ccccc4[n+]3[Ru-]2[Cl])cc1.[Cl-] ?
*A* 0.68 µM

*Q* Another compound to look at: N.N.[Cl][Pt][Cl] [Cisplatin, cisplatin]
*A* 22 µM

*Q* Another compound to look at: Cc1c(C)c(C)c(C)c(C)c1C.Clc1cccc([N+]2=Cc3ccc4ccccc4[n+]3[Ru-]2[Cl])c1.[Cl-]
*A* 2.5 µM

*Q* Another compound to look at: O=C1[O][Pt]2([NH][C@@H]3CCCC[C@H]3[NH]2)[O]C1=O
*A* 1.1 µM

* * *

Test system: MDA-MB-231 mammospheres
method: Mammosphere formation assay, MDA-MB-231 primary
Format: cell-based
measurementConditions: versus control
readoutName: decrease in size of MDA-MB-231 mammospheres (%)
Number only, in %; omit the unit.

Recorded decrease in size of MDA-MB-231 mammospheres, per entry:
[[record]]
itemsmiles = "CC(C)c1cc(C(C)C)cc(C(C)C)c1.COc1ccc([N+]2=Cc3ccc4ccccc4[n+]3[Ru-]2[Cl])cc1.[Cl-]"
numericvalue = 18

[[record]]
itemsmiles = "CC[C@@H](C(=O)[C@@H](C)[C@@H](O)[C@H](C)[C@@H]1O[C@@H]([C@@H](CC)C(=O)O)CC[C@@H]1C)[C@H]1O[C@]2(C=C[C@@H](O)[C@]3(CC[C@@](C)([C@H]4CC[C@](O)(CC)[C@H](C)O4)O3)O2)[C@H](C)C[C@@H]1C"
numericvalue = 30


*Q* Report decrease in size of MDA-MB-231 mammospheres for Cc1c(C)c(C)c(C)c(C)c1C.Clc1cccc([N+]2=Cc3ccc4ccccc4[n+]3[Ru-]2[Cl])c1.[Cl-] tested on MDA-MB-231 mammospheres.
*A* 10
